# Tested Target: Adenosine receptor A2b (Homo sapiens)
# Experiment Summary: Displacement of [3H]PSB603 from recombinant human adenosine A2b receptor expressed in HEK293 cells at 1 uM relative to control
# Type: cell-based
Measure Name: inhibition (%)
Dear colleague, please return just the value in %, with no unit written.

Guide cases for inhibition, answers given:
INSERT INTO measurements (test_smiles, tested_target, measure_name, result_number) VALUES
  ('Cn1c(=O)c2c(nc3n2CCN3Cc2ccc(Cl)c(Cl)c2)n(C)c1=O', 'Adenosine receptor A2b (Homo sapiens)', 'inhibition', 22),
  ('COc1ccccc1CN1CCn2c1nc1c2c(=O)n(C)c(=O)n1C', 'Adenosine receptor A2b (Homo sapiens)', 'inhibition', 3),
  ('Cn1c(=O)c2c(nc3n2CCCCN3Cc2ccc(Cl)cc2Cl)n(C)c1=O', 'Adenosine receptor A2b (Homo sapiens)', 'inhibition', 5);

With those in mind, consider the next compound.
**Q:** Consider the compound Cn1c(=O)c2c(nc3n2CCCCN3Cc2ccccc2Br)n(C)c1=O and give its recorded inhibition.
**A:** 43

###

# Tested Target: Amine oxidase [flavin-containing] B (Homo sapiens)
# Sequence (P27338 whole entry): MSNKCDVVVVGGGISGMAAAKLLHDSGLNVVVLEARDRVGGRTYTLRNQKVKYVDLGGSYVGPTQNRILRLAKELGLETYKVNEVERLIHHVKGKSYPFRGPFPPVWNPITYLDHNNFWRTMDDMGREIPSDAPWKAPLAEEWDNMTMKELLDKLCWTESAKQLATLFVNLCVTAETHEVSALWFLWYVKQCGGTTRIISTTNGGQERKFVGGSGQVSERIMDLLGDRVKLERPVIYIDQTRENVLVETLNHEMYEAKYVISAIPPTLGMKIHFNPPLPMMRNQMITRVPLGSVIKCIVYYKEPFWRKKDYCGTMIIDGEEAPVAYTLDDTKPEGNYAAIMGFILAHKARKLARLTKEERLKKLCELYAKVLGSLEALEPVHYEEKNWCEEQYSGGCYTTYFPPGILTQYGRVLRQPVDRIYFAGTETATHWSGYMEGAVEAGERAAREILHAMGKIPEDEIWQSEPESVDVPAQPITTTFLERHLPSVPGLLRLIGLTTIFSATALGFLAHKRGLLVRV
# Experiment Summary: Inhibition of recombinant human MAOB expressed in baculovirus infected BTI insect cells using p-tyramine as substrate preincubated for 30 mins followed by substrate addition and measured over 45 mins by horseradish peroxidase-Amplex Red-coupled fluorometric assay
Measure Name: IC50 (nM)
Dear colleague, please return just the value in nM, with no unit written.

Guide cases for IC50, answers given:
INSERT INTO measurements (test_smiles, measure_name, result_number) VALUES
  ('Cn1c(=O)c2c(nc3n2CCCCN3Cc2ccccc2Cl)n(C)c1=O', 'IC50', 343),
  ('Cn1c(=O)c2c(nc3n2CCCN3Cc2ccc(F)c(Br)c2)n(C)c1=O', 'IC50', 346),
  ('Cn1c(=O)c2c(nc3n2CCCN3Cc2cccc(Br)c2)n(C)c1=O', 'IC50', 396);

**Q:** Under Amine oxidase [flavin-containing] B (Homo sapiens), report IC50 for COc1ccc(Cl)c(CN2CCCn3c2nc2c3c(=O)n(C)c(=O)n2C)c1F
**A:** 840

**Q:** Under Amine oxidase [flavin-containing] B (Homo sapiens), report IC50 for COc1ccccc1CN1CCCCn2c1nc1c2c(=O)n(C)c(=O)n1C
**A:** 1920

**Q:** Under Amine oxidase [flavin-containing] B (Homo sapiens), report IC50 for Cn1c(=O)c2c(nc3n2CCCN3Cc2cc(Br)ccc2F)n(C)c1=O
**A:** 1180

**Q:** Under Amine oxidase [flavin-containing] B (Homo sapiens), report IC50 for COc1ccccc1CN1CCn2c1nc1c2c(=O)n(C)c(=O)n1C
**A:** 111000

**Q:** Under Amine oxidase [flavin-containing] B (Homo sapiens), report IC50 for Cn1c(=O)c2c(nc3n2CCCN3Cc2ccc(Cl)cc2F)n(C)c1=O
**A:** 377

**Q:** Under Amine oxidase [flavin-containing] B (Homo sapiens), report IC50 for Cn1c(=O)c2c(nc3n2CCCCN3Cc2ccc(F)c(Br)c2)n(C)c1=O
**A:** 171

**Q:** Under Amine oxidase [flavin-containing] B (Homo sapiens), report IC50 for Cn1c(=O)c2c(nc3n2CCCCN3Cc2ccccc2Br)n(C)c1=O
**A:** 275

**Q:** Under Amine oxidase [flavin-containing] B (Homo sapiens), report IC50 for Cn1c(=O)c2c(nc3n2CCCN3Cc2ccccc2F)n(C)c1=O
**A:** 583

###

# Tested Target: UniProt:P30542
# Sequence (P30542 whole entry): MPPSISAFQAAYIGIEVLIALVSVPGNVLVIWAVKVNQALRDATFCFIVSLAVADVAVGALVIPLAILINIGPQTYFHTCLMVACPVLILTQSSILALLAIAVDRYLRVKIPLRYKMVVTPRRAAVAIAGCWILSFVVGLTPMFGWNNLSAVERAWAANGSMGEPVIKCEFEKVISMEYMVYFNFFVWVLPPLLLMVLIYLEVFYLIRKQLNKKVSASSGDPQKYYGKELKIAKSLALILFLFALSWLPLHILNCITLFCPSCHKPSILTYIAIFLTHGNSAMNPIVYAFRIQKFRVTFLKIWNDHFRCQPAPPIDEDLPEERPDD
# Experiment Summary: Displacement of [3H]CCPA from recombinant human adenosine A1 receptor expressed in CHO cells at 1 uM relative to control
# Format: cell-based
Measure Name: inhibition (%)
Dear colleague, please return just the value in %, with no unit written.

Guide cases for inhibition, answers given:
INSERT INTO measurements (test_smiles, measure_name, measurement_unit, result_number) VALUES
  ('COc1ccccc1CN1CCn2c1nc1c2c(=O)n(C)c(=O)n1C', 'inhibition', '%', 30),
  ('Cn1c(=O)c2c(nc3n2CCN3Cc2ccc(Cl)c(Cl)c2)n(C)c1=O', 'inhibition', '%', 1),
  ('Cn1c(=O)c2c(nc3n2CCN3Cc2ccccc2Br)n(C)c1=O', 'inhibition', '%', 24);

**Q:** Under UniProt:P30542, report inhibition for Cn1c(=O)c2c(nc3n2CCCCN3Cc2ccccc2Br)n(C)c1=O
**A:** 21

**Q:** Under UniProt:P30542, report inhibition for Cn1c(=O)c2c(nc3n2CCCCN3Cc2ccc(Cl)c(Cl)c2)n(C)c1=O
**A:** 21

**Q:** Under UniProt:P30542, report inhibition for Cn1c(=O)c2c(nc3n2CCCCN3Cc2ccc(F)c(Br)c2)n(C)c1=O
**A:** 23

**Q:** Under UniProt:P30542, report inhibition for COc1ccccc1CN1CCCCn2c1nc1c2c(=O)n(C)c(=O)n1C
**A:** 13

###

# Tested Target: UniProt:P27338
# Experiment Summary: Inhibition of recombinant human MAOB expressed in baculovirus infected BTI insect cells using p-tyramine as substrate preincubated for 30 mins followed by substrate addition and measured over 45 mins by horseradish peroxidase-Amplex Red-coupled fluorometric assay
Recorded IC50, one value per entry.
Dear colleague, please return just the value in nM, with no unit written.

INSERT INTO assay_data (test_smiles, tested_target, measurement_unit, result_number) VALUES
  ('Cn1c(=O)c2c(nc3n2CCCN3Cc2ccc(F)cc2Cl)n(C)c1=O', 'UniProt:P27338', 'nM', 411),
  ('Cn1c(=O)c2c(nc3n2CCN3Cc2ccc(F)c(Br)c2)n(C)c1=O', 'UniProt:P27338', 'nM', 177),
  ('Cn1c(=O)c2c(nc3n2CCCN3Cc2cc(Cl)ccc2Cl)n(C)c1=O', 'UniProt:P27338', 'nM', 758),
  ('Cn1c(=O)c2c(nc3n2CCCCN3Cc2ccc(Cl)cc2)n(C)c1=O', 'UniProt:P27338', 'nM', 364),
  ('Cn1c(=O)c2c(nc3n2CCCN3Cc2ccc(Cl)c(C(F)(F)F)c2)n(C)c1=O', 'UniProt:P27338', 'nM', 310);

With those in mind, consider the next molecule.
**Q:** Consider the molecule COc1ccc(CN2CCCn3c2nc2c3c(=O)n(C)c(=O)n2C)cc1Cl and give its recorded IC50.
**A:** 407

###

Recorded pIC50, one value per entry.
# Tested Target: Amine oxidase [flavin-containing] A (Homo sapiens)
# Sequence (P21397 whole entry): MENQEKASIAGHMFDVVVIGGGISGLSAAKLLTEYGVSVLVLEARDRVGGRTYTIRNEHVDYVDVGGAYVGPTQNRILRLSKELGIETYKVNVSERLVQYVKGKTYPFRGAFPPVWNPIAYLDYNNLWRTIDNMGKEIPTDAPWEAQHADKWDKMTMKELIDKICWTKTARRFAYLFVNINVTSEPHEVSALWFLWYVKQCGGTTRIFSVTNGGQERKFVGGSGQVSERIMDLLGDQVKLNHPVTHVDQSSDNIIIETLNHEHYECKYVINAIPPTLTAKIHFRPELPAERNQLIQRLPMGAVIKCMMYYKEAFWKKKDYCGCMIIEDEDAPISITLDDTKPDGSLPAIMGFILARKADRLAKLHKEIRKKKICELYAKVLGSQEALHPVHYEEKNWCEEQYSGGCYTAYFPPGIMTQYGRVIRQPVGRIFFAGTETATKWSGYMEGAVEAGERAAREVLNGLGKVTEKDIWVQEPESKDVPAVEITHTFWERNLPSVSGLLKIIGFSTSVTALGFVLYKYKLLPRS
# Experiment Summary: Inhibition of recombinant human MAOA expressed in baculovirus infected BTI insect cells using p-tyramine as substrate preincubated for 30 mins followed by substrate addition and measured over 45 mins by horseradish peroxidase-Amplex Red-coupled fluorometric assay
pIC50: −log10 of the molar value.

Guide cases for pIC50, answers given:
INSERT INTO assay_data (test_smiles, result) VALUES
  ('Cn1c(=O)c2c(nc3n2CCCN3Cc2ccccc2Br)n(C)c1=O', '< 6.00'),
  ('Cn1c(=O)c2c(nc3n2CCCN3Cc2ccccc2F)n(C)c1=O', '< 6.00'),
  ('Cn1c(=O)c2c(nc3n2CCN3Cc2ccc(Cl)c(Cl)c2)n(C)c1=O', '< 6.00'),
  ('Cn1c(=O)c2c(nc3n2CCCCN3Cc2ccc(Cl)c(Cl)c2)n(C)c1=O', '< 6.00');

**Q:** Under Amine oxidase [flavin-containing] A (Homo sapiens), report pIC50 for Cc1cccc(CN2CCCn3c2nc2c3c(=O)n(C)c(=O)n2C)c1
**A:** < 4.00

###

# Tested Target: Adenosine receptor A2b (Homo sapiens)
# Experiment Summary: Displacement of [3H]PSB603 from recombinant human adenosine A2b receptor expressed in HEK293 cells at 1 uM relative to control
# Format: cell-based
Measure Name: inhibition (%)
Dear colleague, please return just the value in %, with no unit written.

INSERT INTO measurements (test_smiles, measure_name, measurement_unit, result_number) VALUES
  ('COc1ccccc1CN1CCCCn2c1nc1c2c(=O)n(C)c(=O)n1C', 'inhibition', '%', 16),
  ('Cn1c(=O)c2c(nc3n2CCN3Cc2ccc(Cl)cc2)n(C)c1=O', 'inhibition', '%', 21),
  ('Cn1c(=O)c2c(nc3n2CCCCN3Cc2ccc(Cl)c(Cl)c2)n(C)c1=O', 'inhibition', '%', 40);

With those in mind, consider the next compound.
**Q:** Consider the compound Cn1c(=O)c2c(nc3n2CCCCN3Cc2ccc(F)c(Br)c2)n(C)c1=O and give its recorded inhibition.
**A:** 43

The measurements presented in this section are drawn from ChEMBL document CHEMBL4480426.
